- MEASURED ON: JAK3 (Homo sapiens, UniProt P52333)
- Construct: purchased Invitrogen
- Sequence (P52333 1-1124): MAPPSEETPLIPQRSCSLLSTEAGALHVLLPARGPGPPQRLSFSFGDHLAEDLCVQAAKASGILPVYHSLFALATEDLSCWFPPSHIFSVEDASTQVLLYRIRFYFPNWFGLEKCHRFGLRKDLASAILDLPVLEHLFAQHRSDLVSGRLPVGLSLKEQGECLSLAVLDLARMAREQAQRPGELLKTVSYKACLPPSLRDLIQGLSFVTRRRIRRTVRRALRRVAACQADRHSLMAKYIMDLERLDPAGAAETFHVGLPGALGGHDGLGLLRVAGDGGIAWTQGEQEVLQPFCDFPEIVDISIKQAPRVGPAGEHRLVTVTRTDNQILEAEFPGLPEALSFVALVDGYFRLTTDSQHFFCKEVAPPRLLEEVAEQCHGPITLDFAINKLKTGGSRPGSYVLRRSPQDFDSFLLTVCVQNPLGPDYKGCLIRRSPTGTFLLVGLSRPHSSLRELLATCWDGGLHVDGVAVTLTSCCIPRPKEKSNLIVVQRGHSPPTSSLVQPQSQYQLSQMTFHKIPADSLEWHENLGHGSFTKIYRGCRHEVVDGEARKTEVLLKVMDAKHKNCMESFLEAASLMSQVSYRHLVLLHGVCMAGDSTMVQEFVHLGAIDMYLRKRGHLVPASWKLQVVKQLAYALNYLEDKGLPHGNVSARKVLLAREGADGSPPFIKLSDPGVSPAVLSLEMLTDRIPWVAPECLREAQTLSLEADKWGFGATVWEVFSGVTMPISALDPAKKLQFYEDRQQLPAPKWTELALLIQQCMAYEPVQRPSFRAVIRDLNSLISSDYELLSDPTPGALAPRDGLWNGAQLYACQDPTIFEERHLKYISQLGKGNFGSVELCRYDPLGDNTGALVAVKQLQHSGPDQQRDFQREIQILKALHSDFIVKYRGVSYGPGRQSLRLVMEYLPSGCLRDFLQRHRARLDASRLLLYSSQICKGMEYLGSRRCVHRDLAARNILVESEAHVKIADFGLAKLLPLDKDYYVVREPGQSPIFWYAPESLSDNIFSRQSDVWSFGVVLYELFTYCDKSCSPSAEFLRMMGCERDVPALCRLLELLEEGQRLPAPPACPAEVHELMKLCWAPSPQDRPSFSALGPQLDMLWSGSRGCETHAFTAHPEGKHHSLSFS
- PROTOCOL SUMMARY: Assay for JAK3 Inhibition (phosphorylation of FAM-labeled substrate, Caliper LC-3000)
- Type: biochemical
- ASSAY CONDITIONS: −log10(IC50), IC50 is the molar concentration at 50% inhibition; read-out: JAK3 pIC50 (converted)
QUANTITY KIND: IC50 (µM)
Return type: number; implicit unit µM.

Sample records with IC50:
- CCC1(N2Cc3c[nH]c4nccc(c34)C2=O)CCN(c2ccncn2)CC1 [Example 17]: 0.0126
- CC[C@@H](CC#N)NC(=O)[C@@H](C(C)C)N1Cc2c(Cl)cnc3[nH]cc(c23)C1=O [Example 37]: 0.0631
- CC[C@H](C(=O)N1CCC(COC)C1)N1Cc2ccnc3[nH]cc(c23)C1=O (some centres unmarked) [Example 60]: 0.794
- CC(C)[C@H](C(=O)N1CC(C)(C#N)C1)N1Cc2c(F)cnc3[nH]cc(c23)C1=O [Example 52]: 0.01
- CC[C@H](C(=O)Nc1ccccc1)N1Cc2ccnc3[nH]cc(c23)C1=O [Example 72]: 0.126

### Prompt Quick one: IC50 of CC(C)[C@H](C(=O)N1CC(C#N)C1)N1Cc2ccnc3[nH]cc(c23)C1=O [Example 81] ?
### Response 0.00501

### Prompt Quick one: IC50 of CC(C)[C@H](C(=O)N1CC(C#N)C1)N1Cc2c(Cl)cnc3[nH]cc(c23)C1=O [Example 39] ?
### Response 0.002

### Prompt Quick one: IC50 of CC[C@H](C(=O)N1CCC(N(C)C)C1)N1Cc2ccnc3[nH]cc(c23)C1=O (some centres unmarked) [Example 59] ?
### Response 6.31

These data points were gathered from patent US8785429B2.
